# run.conditions: 343.15 K; 25100 kPa; Liquid; Vibrating tube method
mass density values by entry

{"molecule": "CNC=O [N-methylformamide]", "unit.symbol": "kg/m3", "mass density": 977}
{"molecule": "CN(C)C=O [dimethylformamide]", "unit.symbol": "kg/m3", "mass density": 919}
{"molecule": "NCCN", "unit.symbol": "kg/m3", "mass density": 865}
{"molecule": "CC(=O)N(C)C [N,N-dimethylethanamide]", "unit.symbol": "kg/m3", "mass density": 913}
